Readings of Kp at 10 µM for the listed molecules
- METHOD_DESCRIPTION: Intracellular concentration by LC/MS/MS in HepG2 cultures parallel to Seahorse assay
- Format: in vitro ADME
- RUN_PARAMETERS: human, HepG2 cells; Seahorse medium, dose 10 µM
- Method: The concentration of test compound at the site of action (i.e. hepatocytes) has been identified as highly influential in the selection of parameter values (7). To assess intracellular concentrations of the five test articles, identical HepG2 cultures were established in parallel and cell lysate concentrations of the test articles were measured by LC/MS/MS analysis. […]
I only need the number, thanks.

Lookup: Recorded Kp at 10 µM of Cc1ccccc1C(=O)Nc1ccc(C(=O)N2CCCC(O)c3cc(Cl)ccc32)c(C)c1 (centres unmarked) [Tolvaptan, tolvaptan, reference compound] , please.
Found: 3.44

Now consider a different molecule.
Lookup: Item under review: `Cc1ccc(F)cc1C(=O)Nc1ccc(C(=O)N2Cc3cccn3Cc3ccccc32)c(Cl)c1` . Reported Kp at 10 µM?
Found: 6.35

###

- METHOD_DESCRIPTION: Intracellular concentration by LC/MS/MS in HepG2 cultures parallel to Seahorse assay
- Format: in vitro ADME
- RUN_PARAMETERS: human, HepG2 cells; Seahorse medium, dose 0.5 µM
READOUT_TYPE: Kp at 0.5 µM
Answer with a bare number; do not write a unit.

Lookup: Could you share which Kp at 0.5 µM value was measured for `Cc1ccc(F)cc1C(=O)Nc1ccc(C(=O)N2Cc3cccn3Cc3ccccc32)c(Cl)c1` ?
Found: 23.2

###

- METHOD_DESCRIPTION: Intracellular concentration by LC/MS/MS in HepG2 cultures parallel to ROS high-content screening
- Type: in vitro ADME
- RUN_PARAMETERS: human, HepG2 cells; High content screening medium, dose 40 µM
- Method: To assess the intracellular concentration of lixivaptan and its metabolites, an identical HepG2 culture was established in parallel and cell lysate concentrations of each test article were measured by LC/MS/MS analysis. Intracellular concentrations of the compounds were calculated by correcting for cell lysate volume (100 µL) and the volume of HepG2 cells in each well, which was calculated by multiplying cell count per well by cellular volume per cell (2.85 pl/cell for HepG2). […]
READOUT_TYPE: Kp at 40 µM

Lookup: Which Kp at 40 µM value is on record for `Cc1ccc(F)cc1C(=O)Nc1ccc(C(=O)N2Cc3cccn3Cc3ccccc32)c(Cl)c1` ?
Found: 12.9

###

- METHOD_DESCRIPTION: Intracellular concentration by LC/MS/MS in HepG2 cultures parallel to Seahorse assay
- Assay type: in vitro ADME
- RUN_PARAMETERS: human, HepG2 cells; Seahorse medium, dose 5 µM
- Experimental: The concentration of test compound at the site of action (i.e. hepatocytes) has been identified as highly influential in the selection of parameter values (7). To assess intracellular concentrations of the five test articles, identical HepG2 cultures were established in parallel and cell lysate concentrations of the test articles were measured by LC/MS/MS analysis. […]
Kp at 5 µM: recorded values

Lookup: Which Kp at 5 µM reading was recorded for the compound Cc1ccccc1C(=O)Nc1ccc(C(=O)N2CCCC(O)c3cc(Cl)ccc32)c(C)c1 (centres unmarked) [Tolvaptan, tolvaptan, reference compound] ?
Found: 6.44

Shift focus to the following entry.
Lookup: Recorded Kp at 5 µM of Cc1ccc(F)cc1C(=O)Nc1ccc(C(=O)N2Cc3cccn3Cc3ccccc32)c(Cl)c1 [Lixivaptan, lixivaptan] , please.
Found: 8.02

Value source: paper PMC6944674
